Molecular target: Aβ42 (Homo sapiens, UniProt P05067)
Sequence (P05067 672-713): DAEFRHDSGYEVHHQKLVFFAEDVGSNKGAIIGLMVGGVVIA
Test: Th-T (thioflavin-T) assay of Aβ42 aggregation
Assay type: biochemical
Settings: column suffix _20; reading M5
Kindly return Y if reported Th-T assay signal, mean of three wells (Fig. 7a) is no lower than 0.3; return N if it is lower.

Take a look at these entries with their results.
MOLECULE: C=C1CCC2C(C)(CCC=C(C)C)C(O)CCC2(C)C1Cc1c(OC)oc(CO)c(C)c1=O (centres unmarked) [Compound 12]
ASSAY TARGET: Aβ42 (Homo sapiens, UniProt P05067)
GROUP: Y

MOLECULE: C=C1CC[C@@H]2[C@](C)(CC[C@H]3O[C@H](C=C(C)C)C[C@@]23C)[C@@H]1Cc1c(OC)oc(CO)c(C(=O)OC)c1=O [Compound 21]
ASSAY TARGET: Aβ42 (Homo sapiens, UniProt P05067)
GROUP: N

MOLECULE: C=C1CCC2C(C)(CCC=C(C)C)C(O)CCC2(C)C1Cc1c(OC)oc(CO)c(C(=O)OC)c1=O (centres unmarked) [Compound 13]
ASSAY TARGET: Aβ42 (Homo sapiens, UniProt P05067)
GROUP: N

Consider now this further molecule.
IN: Evaluate C=C1CC[C@@H]2[C@](C)(CC[C@H]3O[C@H](C=C(C)C)C[C@@]23C)[C@@H]1Cc1c(OC)oc(CO)c(C)c1=O [Compound 20] : Th-T assay signal, mean of three wells (Fig. 7a) at minimum 0.3?
OUT: Y
